Source of measurements: patent US10336774B2

- TARGET: UniProtKB Q06124
- Sequence (Q06124 whole entry): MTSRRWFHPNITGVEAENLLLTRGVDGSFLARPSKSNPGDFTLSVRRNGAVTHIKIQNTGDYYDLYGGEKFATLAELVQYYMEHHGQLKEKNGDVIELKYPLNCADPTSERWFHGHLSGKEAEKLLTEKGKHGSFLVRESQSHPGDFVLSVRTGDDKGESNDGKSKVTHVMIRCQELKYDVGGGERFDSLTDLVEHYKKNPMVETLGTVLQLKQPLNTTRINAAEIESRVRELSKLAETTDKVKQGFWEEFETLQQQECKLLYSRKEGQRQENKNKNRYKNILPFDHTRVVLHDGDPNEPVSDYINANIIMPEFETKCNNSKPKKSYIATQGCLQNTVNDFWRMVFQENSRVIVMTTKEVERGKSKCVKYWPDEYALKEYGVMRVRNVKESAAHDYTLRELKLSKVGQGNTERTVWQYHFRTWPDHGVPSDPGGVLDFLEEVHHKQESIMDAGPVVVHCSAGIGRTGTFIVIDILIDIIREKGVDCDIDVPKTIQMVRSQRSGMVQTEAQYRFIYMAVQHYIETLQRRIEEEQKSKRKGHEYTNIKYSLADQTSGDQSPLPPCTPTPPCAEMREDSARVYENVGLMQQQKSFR
- PROTOCOL: SHP2 Allosteric Inhibition Assay
- Format: biochemical
- CONDITION_PARAMETERS: 0.5 nM SHP2 activated with 0.5 μM peptide IRS1_pY1172(dPEG8)pY1222, surrogate substrate DiFMUP, fluorescence
- Procedure: SHP2 Allosteric Inhibition Assay SHP2 is allosterically activated through binding of bis-tyrosyl-phorphorylated peptides to its Src Homology 2 (SH2) domains. […] The catalytic activity of SHP2 was monitored using the surrogate substrate DiFMUP in a prompt fluorescence assay format. […] The inhibitor dose response curves were analyzed using normalized IC50 regression curve fitting with control based normalization.
ATTRIBUTE_MEASURED: IC50 (nM)
Entry rule: numbers only, all in nM.

Exercise: IC50 lookup needed for Nc1nc(N2CCC3(CC2)C[C@H](O)C[C@H]3N)cnc1Sc1cccnc1C(F)(F)F [Example 43] , thanks.
Solution: 6

Exercise: Next compound up: Nc1nc(N2CCC3(CCC[C@H]3N)CC2)cnc1Sc1cc[nH]c(=O)c1Cl [Example 81]
Solution: 20

Exercise: Next compound up: C[C@@H]1CCC2(CCN(c3cnc(Sc4cccnc4C(F)(F)F)c(N)n3)CC2)[C@@H]1N (single isomer, unassigned) [Example 86b]
Solution: 10

Exercise: Next compound up: C[C@H]1C[C@@H](N)C2(CCN(c3cnc(Sc4ccnc(N)c4Cl)c(N)n3)CC2)C1 [Example 70]
Solution: 5

Exercise: Next compound up: Nc1cc(Sc2ncc(N3CCC4(CC3)COC[C@H]4N)nc2N)c(Cl)c(Cl)n1 [Example 89]
Solution: 11.8

Exercise: Next compound up: Nc1nc(N2CCC3(CCC3N)CC2)cnc1Sc1cccc(Cl)c1Cl (racemic) [Example 14]
Solution: 56

Exercise: Next compound up: Nc1nc(N2CCC3(CC2)CC(F)(F)CC3N)cnc1Sc1cccnc1C(F)(F)F (centres unmarked) [Example 47]
Solution: 21

Exercise: Next compound up: Nc1nc(N2CCC3(CCC3N)CC2)cnc1-c1cccc(Cl)c1Cl (centres unmarked) [Example 16]
Solution: 145
